# system.under.test: human HSP90 alpha protein (N-terminal, amino acids 2 to 236) (Homo sapiens (Human), UniProt P07900)
measured.property: IC50 (nM)

[[record]]
compound = "CCc1cc(-c2ccc(C(N)=O)c(N)c2)c2cccc(-n3cnc(-c4cnn(C)c4)c3)c2n1"
observed_value = 60

[[record]]
compound = "NC(=O)c1ccc(-c2nc(C(F)(F)F)nc3c(-c4cnc5ccccc5c4)cccc23)cc1NC1CCC(O)CC1 (stereo not shown)"
observed_value = 70

[[record]]
compound = "NC(=O)c1ccc(-c2nccc3c(-c4cnc5nc[nH]c5c4)cccc23)cc1NC1CCC(O)CC1 (stereo not shown)"
observed_value = 70

[[record]]
compound = "Cn1cc(-c2cn(-c3cccc4c(-c5ccc(C(N)=O)c(NC(C)(C)C)c5)cc(C5CC5)nc34)cn2)cn1"
observed_value = 400


====

A short record of pIC50 observed with UniProtKB P07900 follows.
pIC50: −log10 of the molar value.
measured.property: pIC50

[[record]]
molecule = "CNc1cncc(-c2cccc3c(-c4ccc(C(N)=O)c(NC5CCC(O)CC5)c4)nccc23)c1 (stereo not drawn)"
observed_value = 6.85

[[record]]
molecule = "CCc1cc(-c2ccc(C(N)=O)c(N)c2)c2cccc(-n3cnc(-c4ccc(C)nc4)c3)c2n1"
observed_value = 6.89

[[record]]
molecule = "NC(=O)c1ccc(-c2cc(C(F)(F)F)nc3c(-n4cnc(-c5cccnc5)c4)cccc23)cn1"
observed_value = 6.46

[[record]]
molecule = "CNc1cc(-c2nccc3c(-n4cnc(-c5cnn(C)c5)c4)cccc23)ccc1C(N)=O"
observed_value = 6.60

[[record]]
molecule = "CC(C)(C)Nc1cc(-c2nccc3c(-c4cnc5ccccc5c4)cccc23)ccc1C(N)=O"
observed_value = 5.82

[[record]]
molecule = "Cc1cc2c(-n3cnc(-c4cnn(C)c4)c3)cccc2c(-c2ccc(C(N)=O)c(NC(C)C)c2)n1"
observed_value = 6.68

[[record]]
molecule = "Cn1cc(-c2cn(-c3cccc4c(-c5ccc(C(N)=O)c(N)c5)ccnc34)cn2)cn1"
observed_value = 6.49

[[record]]
molecule = "CN(C)CNC(=O)c1ccc(-c2nccc3c(-c4cnc5ccccc5c4)cccc23)cc1NC1CCC(O)CC1 (stereo not drawn)"
observed_value = 6.01

[[record]]
molecule = "NC(=O)c1ccc(-c2cc(C(F)(F)F)nc3c(-c4cnc5ccccc5c4)cccc23)cc1N"
observed_value = 6.42

[[record]]
molecule = "NC(=O)c1ccc(-c2nccc3c(-n4cnc(-c5cccnc5)c4)cccc23)cc1NC1CCC(O)CC1 (stereo not drawn)"
observed_value = 7.10

[[record]]
molecule = "NC(=O)c1ccc(-c2nccc3c(-c4cnc5cc(C=O)ccc5c4)cccc23)cc1NC1CCC(O)CC1 (stereo not drawn)"
observed_value = 6.66

[[record]]
molecule = "CCc1cc(-c2ccc(C(N)=O)c(NC(C)(C)C)c2)c2cccc(-n3cnc(-c4cnn(C)c4)c3)c2n1"
observed_value = 6.92

[[record]]
molecule = "Cc1cc2c(-c3cnc4ccccc4c3)cccc2c(-c2ccc(C(N)=O)c(NC3CCC(O)CC3)c2)[n+]1[O-] (stereo not drawn)"
observed_value = 7.00

[[record]]
molecule = "CCCNc1cncc(-c2cccc3c(-c4ccc(C(N)=O)c(NC5CCC(O)CC5)c4)nccc23)c1 (stereo not drawn)"
observed_value = 5.83

[[record]]
molecule = "NC(=O)c1ccc(-c2nccc3c(-c4cnc5cc[nH]c5c4)cccc23)cc1NC1CCC(O)CC1 (stereo not drawn)"
observed_value = 6.89


====

# system.under.test: human HSP90 alpha protein (N-terminal, amino acids 2 to 236) (Homo sapiens (Human), UniProt P07900)
pIC50: −log10 of the molar value.
measured.property: pIC50

[[record]]
compound = "CC(C)c1cc(-c2ccc(C(N)=O)c(N)c2)c2cccc(-c3cnc4ccccc4c3)c2n1 [Example 121]"
measured_property = "pIC50"
observed_value = 6.74

[[record]]
compound = "CCNc1cc(-c2nc(C(F)(F)F)nc3c(-n4cnc(-c5cnn(C)c5)c4)cccc23)ccc1C(N)=O [Example 80]"
measured_property = "pIC50"
observed_value = 6.85

[[record]]
compound = "Cn1cc(-c2cn(-c3cccc4c(-c5ccc(C(N)=O)c(N)c5)nc(C(F)(F)F)nc34)cn2)cn1 [Example 4]"
measured_property = "pIC50"
observed_value = 6.47

[[record]]
compound = "CC(C)(C)Nc1cc(-c2cc(C(F)(F)F)nc3c(-c4cnc5ccccc5c4)cccc23)ccc1C(N)=O [Example 5]"
measured_property = "pIC50"
observed_value = 5.84


====

# system.under.test: human HSP90 alpha protein (N-terminal, amino acids 2 to 236) (Homo sapiens (Human), UniProt P07900)
measured.property: IC50 (nM)

[[record]]
molecule = "NC(=O)c1ccc(-c2ccnc3c(-c4cnc5ccccc5c4)cccc23)cc1NC1CCC(O)CC1 (stereo not shown)"
observed_value = 290

[[record]]
molecule = "CC(C)(C)OC(=O)NCCc1cncc(-c2cccc3c(-c4ccc(C(N)=O)c(NC5CCC(O)CC5)c4)nccc23)c1 (stereo not shown)"
observed_value = 2690

[[record]]
molecule = "CCn1cc(-c2cn(-c3cccc4c(-c5ccc(C(N)=O)c(NC(C)(C)C)c5)cc(C(F)(F)F)nc34)cn2)cn1"
observed_value = 580

[[record]]
molecule = "Cc1cc(C(N)=O)ccc1-c1cc(C(F)(F)F)nc2c(-n3cnc(-c4cnn(C)c4)c3)cccc12"
observed_value = 220


====

# system.under.test: UniProt P07900
pIC50: −log10 of the molar value.
measured.property: pIC50

[[record]]
compound = "COCCNc1cc(-c2nc(C)cc3c(-n4cnc(-c5cnn(C)c5)c4)cccc23)ccc1C(N)=O"
observed_value = 7.10

[[record]]
compound = "NC(=O)c1ccc(-c2ccnc3c(-n4cnc(-c5cccnc5)c4)cccc23)cc1N"
observed_value = 6.08

[[record]]
compound = "NC(=O)c1ccc(-c2nccc3c(-c4cnc5nccnc5c4)cccc23)cc1NC1CCC(O)CC1 (centres unmarked)"
observed_value = 6.35

[[record]]
compound = "Cn1cc(-c2cn(-c3cccc4c(-c5ccc(C(N)=O)c(NCC6CCCO6)c5)nccc34)cn2)cn1 (centres unmarked)"
observed_value = 7.00

[[record]]
compound = "Cc1ccc(-c2cn(-c3cccc4c(-c5ccc(C(N)=O)c(N)c5)cc(C(F)(F)F)nc34)cn2)cn1"
observed_value = 6.60

[[record]]
compound = "Cc1cc(-c2ccc(C(N)=O)c(N)c2)c2cccc(-n3cnc(-c4cnn(C)c4)c3)c2n1"
observed_value = 6.92

[[record]]
compound = "NC(=O)c1ccc(-c2cc(C(F)(F)F)nc3c(-n4cnc(-c5ccccc5)c4)cccc23)cc1N"
observed_value = 5.43

[[record]]
compound = "CCc1cc(-c2ccc(C(N)=O)c(N)c2)c2cccc(-c3cnc4ccccc4c3)c2n1"
observed_value = 6.72

[[record]]
compound = "Cc1cc2c(-n3cnc(-c4cnn(C)c4)c3)cccc2c(-c2ccc(C(N)=O)cc2C)n1"
observed_value = 6.40

[[record]]
compound = "Cn1cc(-c2cn(-c3cccc4c(-c5ccc(C(N)=O)c(NC(C)(C)C)c5)cc(C(F)(F)F)nc34)cn2)cn1"
observed_value = 7.00

[[record]]
compound = "CC(C)(C)Nc1cc(-c2ccnc3c(-n4cnc(-c5cccnc5)c4)cccc23)ccc1C(N)=O"
observed_value = 6.59

[[record]]
compound = "Cc1cc2c(-n3cnc(-c4cnn(C)c4)c3)cccc2c(-c2ccc(C(N)=O)c(NC(C)(C)C)c2)n1"
observed_value = 7.00

[[record]]
compound = "Cn1cc(-c2cn(-c3cccc4c(-c5ccc(C(N)=O)c(NCCc6ccccn6)c5)nccc34)cn2)cn1"
observed_value = 6.77

[[record]]
compound = "CC(C)(C)Nc1cc(-c2cc(C(F)(F)F)nc3c(-n4cnc(-c5cccnc5)c4)cccc23)ccc1C(N)=O"
observed_value = 6.70

[[record]]
compound = "CCCNc1cc(C(N)=O)ccc1-c1cc(C(F)(F)F)nc2c(-n3cnc(-c4cnn(C)c4)c3)cccc12"
observed_value = 6.55

[[record]]
compound = "Cc1cc2c(-n3cnc(-c4cnn(C)c4)c3)cccc2c(-c2ccc(C(N)=O)c(NCC3CC3)c2)n1"
observed_value = 6.72

[[record]]
compound = "NC(=O)c1ccc(-c2nccc3c(-c4cncnc4)cccc23)cc1NC1CCC(O)CC1 (centres unmarked)"
observed_value = 6.16

[[record]]
compound = "Cc1ccc(-c2cn(-c3cccc4c(-c5ccc(C(N)=O)cc5C)cc(C(F)(F)F)nc34)cn2)cn1"
observed_value = 6.47

[[record]]
compound = "Cc1ccc(-c2cn(-c3cccc4c(-c5ccc(C(N)=O)c(NC(C)(C)C)c5)cc(C(F)(F)F)nc34)cn2)cn1"
observed_value = 6.57

[[record]]
compound = "CC(=O)Nc1cncc(-c2cccc3c(-c4ccc(C(N)=O)c(NC5CCC(O)CC5)c4)nccc23)c1 (centres unmarked)"
observed_value = 6.82

[[record]]
compound = "CCNc1cc(-c2cc(C(F)(F)F)nc3c(-n4cnc(-c5cnn(CC)c5)c4)cccc23)ccc1C(N)=O"
observed_value = 6.66

[[record]]
compound = "CCNc1cc(-c2cc(C(F)(F)F)nc3c(-n4cnc(-c5cnn(C)c5)c4)cccc23)ccc1C(N)=O"
observed_value = 6.72

[[record]]
compound = "Cc1cc2c(-c3cnc4ccccc4c3)cccc2c(-c2ccc(C(N)=O)c(NC3CCC(O)CC3)c2)n1 (centres unmarked)"
observed_value = 6.82

[[record]]
compound = "Cn1cc(-c2cn(-c3cccc4c(-c5ccc(C(N)=O)nc5)cc(C(F)(F)F)nc34)cn2)cn1"
observed_value = 6.68

[[record]]
compound = "Cc1ccc2cc(-c3cccc4c(-c5ccc(C(N)=O)c(NC6CCC(O)CC6)c5)nccc34)cnc2c1 (centres unmarked)"
observed_value = 6.32

[[record]]
compound = "NC(=O)c1ccc(-c2nccc3c(-c4cnc5[nH]ccc5c4)cccc23)cc1NC1CCC(O)CC1 (centres unmarked)"
observed_value = 5.82

